- Tested on: Sphaerotheca fuliginea
- METHOD NOTES: Sphaerotheca test (cucumber)/protective
- Format: in vivo
- CONDITION: 500 ppm active compound; cucumber; protective; evaluation 7 days after inoculation
Reported efficacy in % values for the following molecules.

SMILES STR: Fc1ccc(-c2nn3c(c2-c2ccncc2)CCCC3)cc1
efficacy in % (%): 91
//
SMILES STR: CC(C)Nc1cc(-c2c(-c3ccccc3)nn3c2CCC3)ccn1
efficacy in % (%): 94
//
SMILES STR: CCC(=O)Nc1cc(-c2c(-c3ccc(F)cc3)nn3c2CCCC3)ccn1
efficacy in % (%): 95
//
SMILES STR: COC(=O)Nc1cc(-c2c(-c3ccc(F)cc3)nn3c2CCCC3)ccn1
efficacy in % (%): 98
